- assay.overview: yeast display, Sf9 membrane polyspecificity reagent, FACS + sequencing; frameworks hold sequencing errors

[
  {
    "residue.sequence": "QVQLVESGGGLVQAGGSLRLSCAASGITVYLYAMGWYRQAPGKERELVAAISSSGGSTYYADSVKGRFTISRDNAKNTVYLQMNSLKPEDTAVYYCAAVYYTSVTIYDYWGQGTQVTVSS",
    "polyreactivity (PSR sort gate)": "high polyreactivity"
  },
  {
    "residue.sequence": "QDQHVESGGGFVQAGGSLRLICAASGYTFYGNPMGWYRQAPGKEREFVASINYNDDSTYYADSVKGRFTISLDNAKNTDYLQMNSLKPEDTAVYYCAAEYRTRGYHWIYYWGQGTQVTVSS",
    "polyreactivity (PSR sort gate)": "low polyreactivity"
  },
  {
    "residue.sequence": "QVQLVESGGGLVQAGGSLRLSCAASGIIFYGYAMGWYRQAPGKERELVAGISSGGSTYYADSVKGRFTISRDNAKNTVYLQMNSLKPEDTAVYYCNADGGYSYESTDHYGYDYWGQGTQVTVSS",
    "polyreactivity (PSR sort gate)": "low polyreactivity"
  },
  {
    "residue.sequence": "QVQLVDSGGGLVQAGGSLRLSCAASGRIFPGKVMGWYRQAPGKERELVAAISSSGGSTYYADSVKGRFTISRDNAKNTVYLQMNSLKPEDTAVYYCAADSSDWPYDYWGQGTQVTVSS",
    "polyreactivity (PSR sort gate)": "low polyreactivity"
  },
  {
    "residue.sequence": "QVQLVESGGGLVQAGGSLRLSCAASGIIFKLNAMGWYRQAPGKEREFVAAITRRGGITFYADSVKGRFTISRDNAKNTVYLQMNSLKPEDTAVYYCAASPGRRRRPYASLIRYDYWGQGTQVTVSS",
    "polyreactivity (PSR sort gate)": "high polyreactivity"
  },
  {
    "residue.sequence": "QVQLVESGGGLVQAGGSLRLSCAASGRTFNVNAMGWYRQAPGKERELVASITWSDGSTYYADSVKGRFTISRDNAKNTVYLQMNSLKPEDTAVYYCNVTYGLESSYPRDDYWGQGTQVTVSS",
    "polyreactivity (PSR sort gate)": "low polyreactivity"
  },
  {
    "residue.sequence": "QVQLVESGGGLVQAGGSLRLSCDASGLTFTRNAMGWYRPAPGKERELVAAITSTGSTNYADSVKGRFTISRDNAKNTVYLQMNSLKPEDTAVYYCNARNAYYDDNYWGQGTQVTVSS",
    "polyreactivity (PSR sort gate)": "low polyreactivity"
  },
  {
    "residue.sequence": "QVQLVESGGGLVQAGGSLRLSCAASGLIFRYYAMGWYRQAPGKERELVAAITWRGGRTYYADSVKGRFTISRDNAKNTVYLQMNSLKPEDTAVYYCNKDGPYQVITYDYWGQGTQVTVSS",
    "polyreactivity (PSR sort gate)": "high polyreactivity"
  },
  {
    "residue.sequence": "QVQLVESGGGLVQAGGRLRLSCAASGRIFIRNAMGWYRQAPGKERELVAAIDSVGSTYYADSVKGRFTISRDNAKNTVYLQMNSLKPEDTAVYYCAARGWKYASPYWRYYYWGQGTQVTVSS",
    "polyreactivity (PSR sort gate)": "low polyreactivity"
  },
  {
    "residue.sequence": "QVQLVESGGGLVQAGGSLRLSCAASGIIFYYNAMGWYRQAPGKERELVAAIDDRGDSTYYADSVKGRFTISRDNAKNTVYLQMNSLKPEDTAVYYCAARDRYLYFDAMDYWGQGTLVTVSS",
    "polyreactivity (PSR sort gate)": "low polyreactivity"
  },
  {
    "residue.sequence": "QVQLVESGGGLVQAGGSLRLSCAASGRTIDYNGMGWYRQAPGKEREMVAVISSSGGSTFYADSVKGRFTISRDNAKNTVYLQMNSLKPEDTAVYYSAADFIVAYTLHGSYDYWGQGTQVTVSS",
    "polyreactivity (PSR sort gate)": "low polyreactivity"
  }
]

====

- assay.overview: yeast display, Sf9 membrane polyspecificity reagent, FACS + sequencing; frameworks hold sequencing errors

[
  {
    "residue.sequence": "QDPLVESGGGVVQAGGSLRLSCAASGSTFSDYAMGWYRQAPGKERELVAAISVSDGSTYYADSVKGRFTISRDIAKNSVYLQMNSLKPEETAVYYCAAEYPYFVYSYFRFDYWGQGTQVTVSS",
    "polyreactivity (PSR sort gate)": "low polyreactivity"
  },
  {
    "residue.sequence": "QVQLVESGGGLVQAGGSLRLSCAASGSIFDVNAMGWYRPAPGKERELVAAISDSGGSTYYADSVKGRFTISRDNAKNTVYLQMNSLQPQDTAVYSCNADWSWYNYYDFDYWGQGTQVTVSS",
    "polyreactivity (PSR sort gate)": "low polyreactivity"
  },
  {
    "residue.sequence": "QVQLVESGGGLVQAGGSLRLSCAASGSTFQSYAMGRYRQAPGKERELVAAISFSGGSTYYADSVKGRFTISRDNAKNTVYLQMNSLKPEDTAVYYCAKRGWVYFHGYDYWGQGTQVTVSS",
    "polyreactivity (PSR sort gate)": "low polyreactivity"
  },
  {
    "residue.sequence": "QVQLVESGGGLVQAGGSLRLSCAASGRILGRNAMGWYRQAPGKERELVATITSRGGSTYYADSVKGRFTISRDNAKNTVYLQMNSLKPEDTAVYYCAAPRYYYYSYDYWGQGTQVTVSS",
    "polyreactivity (PSR sort gate)": "high polyreactivity"
  },
  {
    "residue.sequence": "QVHLVESGGGLVQAGGSLRLSCAASGFPFGSYAMGWDRPAPGKERELVSGISRGGSTNYADSVKGRFTISRDNAKNTVYLQMNSLKPEDTAVYYCAARAVFVADTGATPAGYDYWGQGTQVTVSS",
    "polyreactivity (PSR sort gate)": "low polyreactivity"
  },
  {
    "residue.sequence": "QVQLVESGGGLVQAGGSLRLSCAASGRTFYDNVMGWYRQAPGKERELVAAISSGGSTNYADSVKGRFTISRDNAKNTVYLQMNSLIPEDTAVYYCATNGGGGWAYEYWGQGTQVTVSS",
    "polyreactivity (PSR sort gate)": "low polyreactivity"
  },
  {
    "residue.sequence": "QVQLVESGGGLVQAGGSLRLSCADSGRIFYYYTMGWYRQAPGKERELVARINSSGSTNLRRLCEGALHNFTRQCEEYRLFTDEQPETGRYRVYYCNADTKRSSREYDYWGQGTQVTVSS",
    "polyreactivity (PSR sort gate)": "low polyreactivity"
  },
  {
    "residue.sequence": "QVQLVESGGGLVQAGGSLRLSCAASGITFNYNAMGWYRQAPGKERELVARITWSGTRTYYADSVKGRFTISRDNSKNTVYFQMNSLKPEDTAVYYCNAGPYARYYWGQGTQVTVSS",
    "polyreactivity (PSR sort gate)": "high polyreactivity"
  },
  {
    "residue.sequence": "QVQLVESGGGLVQAGCSLRLSCAACGSIFRAYAMGWYRQAPGKERELVADISRSGGSTYYADSVKGRFTISRDNAKNTVYLQMNSLKPEDTAFYYCAASYLGGQWRALGYDYWGQGTQVTVSS",
    "polyreactivity (PSR sort gate)": "low polyreactivity"
  },
  {
    "residue.sequence": "QVQLVESGGGLVQAGGSLRLSCAASGSIFNYYAMGWYRQAPGKERELVATITTRDGTTYYADSVKGRFTISRDNAKNTVYLQMNSLKPEDTAVYYCAKSWWPSRRTYSFYYWGQGTQVTVSS",
    "polyreactivity (PSR sort gate)": "high polyreactivity"
  },
  {
    "residue.sequence": "QVQLVESGGGLVLAGASLRLSCAPSGFIFVRYAMGWYRAAPGKERELVAAISSGGSTKYADSVKGRFTISRDNAKNTVYLQMNSLKPEDTAVYYCAADATPGRGVDYWGQGTQVTVSS",
    "polyreactivity (PSR sort gate)": "high polyreactivity"
  },
  {
    "residue.sequence": "QVQLVESGGVLVQAGGSLRLSCAASGNTFKHYALGGYRQAPGKEREKVAAISRSGASTNYADSVKGRFTISRDNAKNTVYLQMNSLKPEDTAVYYCAAEYSARKAYLYDYWGQGTQVTVSS",
    "polyreactivity (PSR sort gate)": "high polyreactivity"
  },
  {
    "residue.sequence": "QVQLVESGGGLVQAGGSLRLSCAASGFIYYYNAMGWYSQAPGKERELVAAISSRGTSTYYADSVKGRFTISRENAKNTVYLQMNSLKPEDTAVYYCNALGNFGMDYWGQGNQVTVSS",
    "polyreactivity (PSR sort gate)": "high polyreactivity"
  },
  {
    "residue.sequence": "QVQLVESGGGLVQAGGSLRLSCAASGITFWFNAMGWYRQAPGKERELVAAITSGVDTNYADSVKGRFTISRDNAKNTVYLQMNSLKPEDTAVYYCAAQGGRLKRGRTTSDYWGQGTQVTVSS",
    "polyreactivity (PSR sort gate)": "low polyreactivity"
  },
  {
    "residue.sequence": "QVQLVDSGGGLVQAGGSLRLSCAASGSIFDFYAMGWYRQAPGTERELVAAINSGGSTNYADSVKGRFTISRDNAKNTVYLQMNSLTPEDTAVYYCAARHPPYRGGYWGQGTQVTVSS",
    "polyreactivity (PSR sort gate)": "low polyreactivity"
  },
  {
    "residue.sequence": "QVQLVESGGGLLQAGGSLRLSCAASGSIFYINAKGWYRQAPGKERELVAAITSDGSTYYADSVKGRFTISRDYANYTVYLQLNSLKPEYSAVYYCAADLTSDQYLYYWYWFSSWGQGTQGTVSS",
    "polyreactivity (PSR sort gate)": "low polyreactivity"
  },
  {
    "residue.sequence": "QVQLVESWGGLVQAGGSLRLSCDASGSIFVSNAMGWYRQAPGKERELVAAISRGGVNTNYADSVKGRFTISRDNAKNTVYLQMNSLKQEDTAVYYCAAKWSHVRDGPKYDYCGQGTQVTVSS",
    "polyreactivity (PSR sort gate)": "low polyreactivity"
  },
  {
    "residue.sequence": "QVQLVESGGGLVQAGCSLRLSCAASGLIFYYYAMGWYRQAPGKERELVAAITSDDRTYYADSVKGRFTISRDNAKNTVYLQMNSLKPEDTAVYYCAARYHGYLAQYRKYGYGYWGQGTQVTVSS",
    "polyreactivity (PSR sort gate)": "high polyreactivity"
  },
  {
    "residue.sequence": "QVHLVESGGGLVQAGGSLRLSCAASGSTFSWYDMGWYRQAPGKERELVAAISTTGSTYYADSVKGRFTISRDNAKNTVYLQMNSLKPEDTAVYYCAADYISIAWYRLFYDYDYWGQGTQVTVSS",
    "polyreactivity (PSR sort gate)": "high polyreactivity"
  },
  {
    "residue.sequence": "QVQLVESGGGLDQAGGSLRLSCAASASTFRRYAMGWYRQAPGKERELVAAISRSGGNTYYADSVKGRFTISRDNAKNTVYLQMNSLKPEDTAVYYCAASKLYGSPEHGYWGQGTQVTVSS",
    "polyreactivity (PSR sort gate)": "high polyreactivity"
  },
  {
    "residue.sequence": "QVQLVESGGGLVQAGGSLRLSCAASGFTLDWYVMGWYRQAPRKERELFAAISSSGGRTYYADSVKGRFTISRDNAKNSVYLQMNSLKPEDTAVYYCAAGTYYRVGRGRRVSFVYWGQGTQVTVSS",
    "polyreactivity (PSR sort gate)": "high polyreactivity"
  }
]
